These entries and their values trace back to patent US6527981B1.

Test system: G. trabeum (brown rot fungi)
assay.method.text: agar dilution plate method, wood rot fungi (MIC, IC50, percent retardation)
Assay type: cell-based
condition.label: azole alone; Table2D curve fitting
What G. trabeum IC50 was measured for each of the following?
Numbers only, in ppm.

The following compounds have reported results that may help.
>>> value_measured("CCCCC(C#N)(Cn1cncn1)c1ccc(Cl)cc1 (centres unmarked)")
4.3
>>> value_measured("N#CC(CCc1ccc(Cl)cc1)(Cn1cncn1)c1ccccc1 (centres unmarked)")
0.3
>>> value_measured("CCCC1COC(Cn2cncn2)(c2ccc(Cl)cc2Cl)O1 (centres unmarked)")
0.9

Let us move to another entry and its G. trabeum IC50.
Inquiry: For the compound CC(C1CC1)C(O)(Cn1cncn1)c1ccc(Cl)cc1 (centres unmarked) , what G. trabeum IC50 is on record?
Reply text: 0.3
